Ref: PubChem BioAssay (NCI)

Test system: SF-539 CNS
Test: NCI tumour cell line growth inhibition, 48 h
Below, each of the compounds is paired with its reported TGI value.
measured.quantity: TGI (µM)

>>> value_observed("COc1cc(/C=C/C(=O)c2c(=O)o[nH][n+]2-c2ccccc2)ccc1[O-]")
5.92
>>> value_observed("O=C1c2ccc([N+](=O)[O-])cc2-c2c1c1ccccc1c(=O)n2CCCNCCCNCCCn1c2c(c3ccc([N+](=O)[O-])cc3c1=O)C(=O)c1ccccc1-2")
7
>>> value_observed("O=C1C=CC=CC2CC=C[C@@H](O)C12 (stereo not given in full)")
63.9
>>> value_observed("O=[N+]([O-])c1ccc(S(=O)Cc2ccccc2)c([N+](=O)[O-])c1 (stereo not given)")
13.8
>>> value_observed("Cc1ccc(S(=O)(=O)NCCNC2=CC(=O)c3nc4ccccc4c4ccnc2c34)cc1")
38.3

* * *

Tested on: MOLT-4 leukemia
Test: NCI tumour cell line growth inhibition, 48 h
measured.quantity: TGI

>>> value_observed("Cc1ccc(C2=NOC(=O)[C@@H]3CCCC[C@@H]23)cc1")
"> 100 µM"
>>> value_observed("COc1cc2c(cc1OCCCC(=O)Nc1cc(C(=O)Nc3cc(C(=O)Nc4cc(C(=O)NCCCN(C)C)n(C)n4)n(C)n3)n(C)n1)N=CC1CCCN1C2=O (stereo not given)")
"> 100 µM"
>>> value_observed("Oc1ccc(C(c2ccc(O)cc2)c2ccc(Cl)cn2)cc1")
"> 100 µM"
>>> value_observed("C[C@@H](O)C(=O)N1[C@@H]2CC3CC[C@]2(CS1(=O)=O)C3(C)C")
"> 100 µM"
>>> value_observed("NCCCOCC(=O)O")
"> 100 µM"

* * *

Test system: HL-60(TB) leukemia
Assay: NCI tumour cell line growth inhibition, 48 h; in the data active means GI50 below about 0.43 µM; inactive means the rest
Possible outcomes: active, inactive

>>> answer_label("COc1ccc2c(c1)/C(=C\\c1cccnc1)C(=O)N2")
"inactive"
>>> answer_label("Cc1cc(/C=C\\c2ccc3ccccc3[n+]2C)c(O)c2ncccc12")
"active"
>>> answer_label("COc1ccc(N2Cc3cnc(Nc4ccccc4)nc3N([C@@H]3CC[C@@H](O)C3)C2=O)cc1")
"inactive"
>>> answer_label("Cc1ccc(/C(=N\\N=C(N)N)c2ccccc2)cc1")
"active"
>>> answer_label("COc1cc(CCN)c2c(c1OC)SSSSS2")
"inactive"

* * *

Tested on: SNB-75 CNS
Assay: NCI tumour cell line growth inhibition, 48 h; in the data active = GI50 below about 0.43 µM; inactive = the rest
Classes used: active, inactive

>>> answer_label("Cc1ccc(/C(=N\\N=C(N)N)c2ccccc2)cc1")
"active"
>>> answer_label("O=C([CH-]C(=O)c1ccccc1)c1ccccc1.O=C([CH-]C(=O)c1ccccc1)c1ccccc1.O=C([CH-]C(=O)c1ccccc1)c1ccccc1.[Nd+3].[OH3+]")
"inactive"
>>> answer_label("O=C1C(c2c[nH]c3ccccc23)=C(c2c[nH]c3ccccc23)C(=O)N1O")
"inactive"
>>> answer_label("COc1ccc(N2Cc3cnc(Nc4ccccc4)nc3N([C@@H]3CC[C@@H](O)C3)C2=O)cc1")
"active"
>>> answer_label("COc1ccc2c(c1)/C(=C\\c1cccnc1)C(=O)N2")
"inactive"
>>> answer_label("O=Nc1c(-c2c(O)[nH]c3ccc([N+](=O)[O-])cc23)[nH]c2ccc(O)cc12")
"active"
>>> answer_label("Cc1ccc(S(=O)(=O)NCCNC2=CC(=O)c3nc4ccccc4c4ccnc2c34)cc1")
"inactive"
>>> answer_label("CCCCCCCNc1nc(C(=O)OCC)ncc1-c1ccc(C(F)(F)F)cc1")
"inactive"
>>> answer_label("Cc1cc(/C=C\\c2ccc3ccccc3[n+]2C)c(O)c2ncccc12")
"inactive"
>>> answer_label("Oc1ccc(C(c2ccc(O)cc2)c2ccc(Cl)cn2)cc1")
"active"
